Where these numbers come from: the kinase profiling compilation of Christmann-Franck et al. (2016)

target.desc: ULK3 (human)
method.summary: KINOMEscan competition binding
condition.context: compound 10.0 µM
readout.kind: kinase still bound, per cent of control (%)

In [3]: df
Out[3]:
                                smiles_code  observed_value
0  COc1cc(N2CCC(O)CC2)ccc1Nc1ncc2c(n1)N1CCc3cccc(c31)C(=O)N2C             100
1  CN1C(=O)c2ccccc2N(C)c2nc(NS(=O)(=O)c3ccc(N)cc3)ncc21             100
2  CN1C(=O)c2ccccc2N(C)c2nc(Nc3ccc(N4CCC(O)CC4)cc3)ncc21              77
3  O=C1NC(=O)/C(=C/c2c[nH]c(=O)c(-c3ccc(N4CCNCC4)nc3)c2)S1             100
4  NS(=O)(=O)c1ccc(-c2cccc(/C=C3\SC(=O)NC3=O)c2)cc1              18
